Origin of the recorded values: patent US20250195521A1

Listed here: items and their measured pIC50.
- ASSAYED_SYSTEM: KRAS G13D (Homo sapiens (Human), UniProt P01116+P62937, G13D)
- Sequence (P01116 other isoform, or with tags, fused parts or gaps G13D): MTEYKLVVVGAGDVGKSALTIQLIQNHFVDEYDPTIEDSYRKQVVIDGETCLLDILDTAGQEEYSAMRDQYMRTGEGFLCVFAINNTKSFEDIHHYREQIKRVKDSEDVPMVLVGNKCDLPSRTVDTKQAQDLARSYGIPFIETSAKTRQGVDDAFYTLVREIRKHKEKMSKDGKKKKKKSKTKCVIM
- Sequence (P62937 whole entry): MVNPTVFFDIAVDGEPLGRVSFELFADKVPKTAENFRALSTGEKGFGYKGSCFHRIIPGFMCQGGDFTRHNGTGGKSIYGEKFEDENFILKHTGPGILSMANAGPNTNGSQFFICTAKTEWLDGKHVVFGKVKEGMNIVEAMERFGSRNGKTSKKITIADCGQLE
- METHOD_DESCRIPTION: Ras-Raf disruption/FRET/MOA assay (BRAF RBD, Cyclophilin A)
- Assay type: biochemical
- TEST_CONDITIONS: read-out: KRAS G13D FRET data IC50
pIC50: −log10 of the molar value.

>>> experimental_result("CCn1c(-c2cccnc2[C@H](C)OC)c2c3cc(ccc31)-c1csc(n1)C[C@H](NC(=O)[C@H](C(C)C)N(C)C(=O)N(C)CCc1ccncc1)C(=O)N1CCC[C@H](N1)C(=O)OCC(C)(C)C2 [Compound A557]")
"6.00 to 7.00"
>>> experimental_result("CCn1c(-c2ccccc2[C@H](C)OC)c2c3cc(ccc31)-c1csc(n1)C[C@H](NC(=O)[C@H](C(C)C)N(C)C(=O)[C@H]1CCN(C(=O)OC3COC3)C1)C(=O)N1CCC[C@H](N1)C(=O)OCC(C)(C)C2 [Compound A203]")
"5.00 to 6.00"
>>> experimental_result("CCn1c(-c2cccnc2[C@H](C)OC)c2c3cc(ccc31)-c1csc(n1)C[C@H](NC(=O)[C@H](C(C)C)N(C)C(=O)N1CCO[C@@]3(CCN(C)C3)C1)C(=O)N1CCC[C@H](N1)C(=O)OCC(C)(C)C2 [Compound A436]")
"6.00 to 7.00"
>>> experimental_result("CCn1c(-c2cccnc2[C@H](C)OC)c2c3cc(ccc31)-c1cc(O)cc(c1)C[C@H](NC(=O)[C@H](C(C)C)N(C)C(=O)C1CC(C)C1)C(=O)N1CCC[C@H](N1)C(=O)OCC(C)(C)C2 (stereo partly drawn) [Compound A384]")
"6.00 to 7.00"
>>> experimental_result("CCn1c(-c2cccnc2[C@H](C)OC)c2c3cc(ccc31)-c1csc(n1)C[C@H](NC(=O)[C@H](C(C)C)N(CCc1ccncc1)C1CC1)C(=O)N1CCC[C@H](N1)C(=O)OCC(C)(C)C2 [Compound A556]")
"5.00 to 6.00"

Exercise: Give pIC50 for this entry on KRAS G13D (Homo sapiens (Human), UniProt P01116+P62937, G13D): CCn1c(-c2cccnc2[C@H](C)OC)c2c3cc(ccc31)-c1cc(O)cc(c1)C[C@H](NC(=O)[C@H](C(C)C)N(C)C(=O)C1CC13CNC3)C(=O)N1CCC[C@H](N1)C(=O)OCC(C)(C)C2 (stereo partly drawn) [Compound A140]
Key: 7.00 to 8.00

Exercise: Give pIC50 for this entry on KRAS G13D (Homo sapiens (Human), UniProt P01116+P62937, G13D): CCn1c(-c2cccnc2[C@H](C)OC)c2c3cc(ccc31)-c1csc(n1)C[C@H](NC(=O)[C@H](C(C)C)N(C)C(=O)N1CC(CN(C)C)C1)C(=O)N1CCC[C@H](N1)C(=O)OCC(C)(C)C2 [Compound A576]
Key: 6.00 to 7.00

Exercise: Give pIC50 for this entry on KRAS G13D (Homo sapiens (Human), UniProt P01116+P62937, G13D): CCn1c(-c2cccnc2[C@H](C)OC)c2c3cc(ccc31)-c1cc(O)cc(c1)C[C@H](NS(=O)(=O)c1cn(C)c(C)n1)C(=O)N1CCC[C@H](N1)C(=O)OCC(C)(C)C2 [Compound A197]
Key: < 5.00

Exercise: Give pIC50 for this entry on KRAS G13D (Homo sapiens (Human), UniProt P01116+P62937, G13D): CCn1c(-c2cccnc2[C@H](C)OC)c2c3cc(ccc31)-c1cc(O)cc(c1)C[C@H](NC(=O)[C@H](C(C)C)N(C)C(=O)[C@@H]1COC[C@@H]1N)C(=O)N1CCC[C@H](N1)C(=O)OCC(C)(C)C2 [Compound A418]
Key: 6.00 to 7.00

----------
Listed here: items and their measured IC50.
- ASSAYED_SYSTEM: NRAS Q61R (Homo sapiens (Human), UniProt P01111+P62937, Q61R)
- Sequence (P01111 whole entry Q61R): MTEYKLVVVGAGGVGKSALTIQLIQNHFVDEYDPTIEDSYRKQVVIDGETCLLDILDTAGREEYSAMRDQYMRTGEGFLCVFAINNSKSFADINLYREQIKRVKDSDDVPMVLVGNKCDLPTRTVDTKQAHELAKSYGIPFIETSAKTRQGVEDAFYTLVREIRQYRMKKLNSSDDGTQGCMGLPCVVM
- Sequence (P62937 whole entry): as the sequence (P62937 whole entry) above
- METHOD_DESCRIPTION: Ras-Raf disruption/FRET/MOA assay (BRAF RBD, Cyclophilin A)
- Format: biochemical

// worked examples, IC50 included
>>> experimental_result("CCn1c(-c2cccnc2[C@H](C)OC)c2c3cc(ccc31)-c1csc(n1)C[C@H](NC(=O)[C@H](C(C)C)N(C)C(=O)N1CC[C@H]1CN(C)C)C(=O)N1CCC[C@H](N1)C(=O)OCC(C)(C)C2")
"1000 to 10000 nM"
>>> experimental_result("CCn1c(-c2cccnc2[C@H](C)OC)c2c3cc(ccc31)-c1csc(n1)C[C@H](NC(=O)[C@H](C(C)C)N(C)C(=O)N1CC[C@@H]1CN)C(=O)N1CCC[C@H](N1)C(=O)OCC(C)(C)C2")
"100 to 1000 nM"
>>> experimental_result("CCn1c(-c2cccnc2[C@H](C)OC)c2c3cc(ccc31)-c1csc(n1)C[C@H](NC(=O)[C@H](C(C)C)N(C)C(=O)N1CC(O)C1)C(=O)N1CCC[C@H](N1)C(=O)OCC(C)(C)C2")
"100 to 1000 nM"

Exercise: Give IC50 for this entry on NRAS Q61R (Homo sapiens (Human), UniProt P01111+P62937, Q61R): CCn1c(-c2cccnc2[C@H](C)OC)c2c3cc(ccc31)-c1csc(n1)C[C@H](NC(=O)[C@H](C(C)C)N(C)C(=O)N1CCO[C@@]3(CCN(C)C3)C1)C(=O)N1CCC[C@H](N1)C(=O)OCC(C)(C)C2
Key: 100 to 1000 nM

----------
Listed here: items and their measured IC50.
- ASSAYED_SYSTEM: NRAS WT (Homo sapiens (Human), UniProt P01111+P62937)
- Sequence (P01111 whole entry): as the sequence (P01111 whole entry Q61R) above, with R61Q counted along it
- Sequence (P62937 whole entry): as the sequence (P62937 whole entry) above
- METHOD_DESCRIPTION: Ras-Raf disruption/FRET/MOA assay (BRAF RBD, Cyclophilin A)
- Assay type: biochemical

// worked examples, IC50 included
>>> experimental_result("CCn1c(-c2cccnc2[C@H](C)OC)c2c3cc(ccc31)-c1csc(n1)C[C@H](NC(=O)N1CC[C@@H]1COC)C(=O)N1CCC[C@H](N1)C(=O)OCC(C)(C)C2")
"100 to 1000 nM"
>>> experimental_result("CCn1c(-c2cccnc2[C@H](C)OC)c2c3cc(ccc31)-c1cc(O)cc(c1)C[C@H](NC(=O)[C@H](C(C)C)N(C)C(=O)[C@@]1(F)CCN(C(=O)OC)C1)C(=O)N1CCC[C@H](N1)C(=O)OCC(C)(C)C2")
"10 to 100 nM"
>>> experimental_result("CCn1c(-c2cccnc2[C@H](C)OC)c2c3cc(ccc31)-c1csc(n1)C[C@H](NC(=O)[C@H](C(C)C)N(C)C(=O)N1CC([C@H](C)N(C)C)C1)C(=O)N1CCC[C@H](N1)C(=O)OCC(C)(C)C2")
"100 to 1000 nM"
>>> experimental_result("CCn1c(-c2cc(N3CCN(C)CC3)cnc2[C@H](C)OC)c2c3cc(ccc31)-c1csc(n1)C[C@H](NC(=O)[C@H](C(C)C)N(C)C(=O)[C@H]1CCCS1(=O)=O)C(=O)N1CCC[C@H](N1)C(=O)OCC(C)(C)C2")
"100 to 1000 nM"
>>> experimental_result("CCn1c(-c2cccnc2[C@H](C)OC)c2c3cc(ccc31)-c1csc(n1)C[C@H](NC(=O)[C@H](C(C)C)N(C)C(=O)N1CCC[C@H](N(C)C)C1)C(=O)N1CCC[C@H](N1)C(=O)OCC(C)(C)C2")
"10 to 100 nM"

Exercise: Return the recorded IC50 value; entry: CCn1c(-c2cccnc2[C@H](C)OC)c2c3cc(ccc31)-c1csc(n1)C[C@H](NC(=O)[C@H](C(C)C)N(C)C(=O)N1CC[C@H]1CN(C)C)C(=O)N1CCC[C@H](N1)C(=O)OCC(C)(C)C2
Key: 100 to 1000 nM

Exercise: Return the recorded IC50 value; entry: CCn1c(-c2cccnc2[C@H](C)OC)c2c3cc(ccc31)-c1csc(n1)C[C@H](NC(=O)[C@H](C(C)C)N(C)C(=O)N(C)C1CN(C)C1)C(=O)N1CCC[C@H](N1)C(=O)OCC(C)(C)C2
Key: 100 to 1000 nM

Exercise: Return the recorded IC50 value; entry: CCn1c(-c2cccnc2[C@H](C)OC)c2c3cc(ccc31)-c1csc(n1)C[C@H](NC(=O)[C@H](C(C)C)N(C)C(=O)N1C[C@@H]3OCCN(C)[C@H]3C1)C(=O)N1CCC[C@H](N1)C(=O)OCC(C)(C)C2
Key: 100 to 1000 nM

Exercise: Return the recorded IC50 value; entry: CCn1c(-c2cccnc2[C@H](C)OC)c2c3cc(ccc31)-c1csc(n1)C[C@H](NC(=O)[C@H](C(C)C)N(C)C(=O)N1CC(C(=O)N3CCOCC3)C1)C(=O)N1CCC[C@H](N1)C(=O)OCC(C)(C)C2
Key: 100 to 1000 nM
